Attribution: ChEMBL document CHEMBL1156975

Test: Oral bioavailability in rat at 3 mg/kg after 24 hrs by MS/MS analysis
Assay type: ADME, organism-based
Conditions: in vivo
READOUT_NAME: bioavailability (%)
Respond numerically; units are % and should not be typed.

Guide cases for bioavailability, answers given:
| CPD_SMILES | bioavailability / % |
| --- | --- |
| Fc1cc(-c2cccc3ncc(-c4cnn(C5CCNCC5)c4)nc23)cc(F)c1CN1CCOCC1 | 31 |
| CN1CCN(c2ccc(-c3cnc4cccc(-c5cc(F)c(CN6CCS(=O)(=O)CC6)c(F)c5)c4n3)cn2)CC1 | 100 |

Enquiry: Write down bioavailability measured for item CN1CCN(c2ccc(-c3cnc4cccc(-c5cc(F)c(CN6CCOCC6)c(F)c5)c4n3)cc2)CC1
Return: 100

----------
Assay: AUC in rat at 1 mg/kg, iv after 48 hrs by MS/MS analysis
Assay type: ADME, organism-based
Parameters: time < 48 hr, dose 1 mg/kg, route intravenous
Conditions: plasma
Attribute: AUC at 48 h
The reply should contain only the number, in µM·h.

| CPD_SMILES | READOUT_NAME | UNIT_LABEL | MEASURED_VALUE |
| --- | --- | --- | --- |
| CN1CCN(c2ccc(-c3cnc4cccc(-c5cc(F)c(CN6CCOCC6)c(F)c5)c4n3)cc2)CC1 | AUC at 48 h | µM·h | 1.65 |
| Fc1cc(-c2cccc3ncc(-c4cnn(C5CCNCC5)c4)nc23)cc(F)c1CN1CCOCC1 | AUC at 48 h | µM·h | 1.47 |

Enquiry: State, in one line, measured AUC at 48 h of CN1CCN(c2ccc(-c3cnc4cccc(-c5cc(F)c(CN6CCS(=O)(=O)CC6)c(F)c5)c4n3)cn2)CC1
Return: 0.76

----------
Vd values by entry
Assay: Volume of distribution at steady state in rat at 1 mg/kg, iv or 3 mg/kg, po by MS/MS analysis
Assay type: ADME, organism-based
Settings: in vivo, read-out: Vdss
A number alone suffices; assume L/kg.

| CPD_SMILES | MEASURED_VALUE |
| --- | --- |
| CN1CCN(c2ccc(-c3cnc4cccc(-c5cc(F)c(CN6CCOCC6)c(F)c5)c4n3)cc2)CC1 | 18.9 |
| CN1CCN(c2ccc(-c3cnc4cccc(-c5cc(F)c(CN6CCS(=O)(=O)CC6)c(F)c5)c4n3)cn2)CC1 | 13.2 |

Could you now consider this next molecule?
Enquiry: Supply recorded Vd for Fc1cc(-c2cccc3ncc(-c4cnn(C5CCNCC5)c4)nc23)cc(F)c1CN1CCOCC1 here.
Return: 33

----------
Assay: Terminal half life in iv dosed rat
Assay type: ADME, organism-based
Details: in vivo, read-out: beta t1/2 (converted)
READOUT_NAME: half-life (min)
Give the value in min but do not write min after it.

Enquiry: Kindly indicate its recorded half-life. Item: CNS(=O)(=O)c1ccc(-c2cccc3ncc(-c4cc(OC)c(OC)c(OC)c4)nc23)cc1
Return: 101

----------
Target: Tyrosine-protein kinase ABL1 (Homo sapiens, UniProt P00519)
Sequence (P00519 whole entry): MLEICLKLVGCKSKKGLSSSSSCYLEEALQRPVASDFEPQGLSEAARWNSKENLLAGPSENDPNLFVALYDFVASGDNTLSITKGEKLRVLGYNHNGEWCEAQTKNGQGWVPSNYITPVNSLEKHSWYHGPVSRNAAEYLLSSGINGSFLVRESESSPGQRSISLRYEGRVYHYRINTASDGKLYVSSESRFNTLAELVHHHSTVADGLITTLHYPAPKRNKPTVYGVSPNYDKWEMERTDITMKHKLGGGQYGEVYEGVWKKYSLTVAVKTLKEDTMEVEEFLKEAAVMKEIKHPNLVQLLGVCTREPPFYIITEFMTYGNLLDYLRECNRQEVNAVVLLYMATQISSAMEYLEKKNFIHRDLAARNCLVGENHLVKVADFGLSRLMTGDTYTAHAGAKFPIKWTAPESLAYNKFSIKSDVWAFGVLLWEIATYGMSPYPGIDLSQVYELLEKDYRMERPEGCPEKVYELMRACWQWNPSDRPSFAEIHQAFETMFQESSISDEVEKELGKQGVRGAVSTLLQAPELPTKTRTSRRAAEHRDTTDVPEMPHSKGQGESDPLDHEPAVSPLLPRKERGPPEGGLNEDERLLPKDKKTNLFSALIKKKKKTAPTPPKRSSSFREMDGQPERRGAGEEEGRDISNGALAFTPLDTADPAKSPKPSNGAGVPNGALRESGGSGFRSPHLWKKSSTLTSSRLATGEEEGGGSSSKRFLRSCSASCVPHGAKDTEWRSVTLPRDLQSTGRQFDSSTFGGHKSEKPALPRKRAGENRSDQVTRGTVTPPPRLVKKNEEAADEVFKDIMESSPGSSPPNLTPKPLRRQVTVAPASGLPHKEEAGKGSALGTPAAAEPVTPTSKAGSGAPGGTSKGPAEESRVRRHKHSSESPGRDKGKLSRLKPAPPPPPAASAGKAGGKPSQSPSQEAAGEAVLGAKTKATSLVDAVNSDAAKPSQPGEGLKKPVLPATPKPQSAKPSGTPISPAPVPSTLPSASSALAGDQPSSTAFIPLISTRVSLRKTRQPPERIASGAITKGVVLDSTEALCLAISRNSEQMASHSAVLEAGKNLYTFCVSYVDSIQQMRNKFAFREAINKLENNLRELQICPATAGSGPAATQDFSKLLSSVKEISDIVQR
READOUT_NAME: pIC50
Convention used: pIC50 is expressed as -log10 of the molar concentration.

Enquiry: Please report the measured pIC50 for Fc1cc(-c2cccc3ncc(-c4cnn(C5CCNCC5)c4)nc23)cc(F)c1CN1CCOCC1 tested on Tyrosine-protein kinase ABL1 (Homo sapiens, UniProt P00519).
Return: 7.10

----------
Target: Non-receptor tyrosine-protein kinase TYK2 (Homo sapiens)
Sequence (P29597 whole entry): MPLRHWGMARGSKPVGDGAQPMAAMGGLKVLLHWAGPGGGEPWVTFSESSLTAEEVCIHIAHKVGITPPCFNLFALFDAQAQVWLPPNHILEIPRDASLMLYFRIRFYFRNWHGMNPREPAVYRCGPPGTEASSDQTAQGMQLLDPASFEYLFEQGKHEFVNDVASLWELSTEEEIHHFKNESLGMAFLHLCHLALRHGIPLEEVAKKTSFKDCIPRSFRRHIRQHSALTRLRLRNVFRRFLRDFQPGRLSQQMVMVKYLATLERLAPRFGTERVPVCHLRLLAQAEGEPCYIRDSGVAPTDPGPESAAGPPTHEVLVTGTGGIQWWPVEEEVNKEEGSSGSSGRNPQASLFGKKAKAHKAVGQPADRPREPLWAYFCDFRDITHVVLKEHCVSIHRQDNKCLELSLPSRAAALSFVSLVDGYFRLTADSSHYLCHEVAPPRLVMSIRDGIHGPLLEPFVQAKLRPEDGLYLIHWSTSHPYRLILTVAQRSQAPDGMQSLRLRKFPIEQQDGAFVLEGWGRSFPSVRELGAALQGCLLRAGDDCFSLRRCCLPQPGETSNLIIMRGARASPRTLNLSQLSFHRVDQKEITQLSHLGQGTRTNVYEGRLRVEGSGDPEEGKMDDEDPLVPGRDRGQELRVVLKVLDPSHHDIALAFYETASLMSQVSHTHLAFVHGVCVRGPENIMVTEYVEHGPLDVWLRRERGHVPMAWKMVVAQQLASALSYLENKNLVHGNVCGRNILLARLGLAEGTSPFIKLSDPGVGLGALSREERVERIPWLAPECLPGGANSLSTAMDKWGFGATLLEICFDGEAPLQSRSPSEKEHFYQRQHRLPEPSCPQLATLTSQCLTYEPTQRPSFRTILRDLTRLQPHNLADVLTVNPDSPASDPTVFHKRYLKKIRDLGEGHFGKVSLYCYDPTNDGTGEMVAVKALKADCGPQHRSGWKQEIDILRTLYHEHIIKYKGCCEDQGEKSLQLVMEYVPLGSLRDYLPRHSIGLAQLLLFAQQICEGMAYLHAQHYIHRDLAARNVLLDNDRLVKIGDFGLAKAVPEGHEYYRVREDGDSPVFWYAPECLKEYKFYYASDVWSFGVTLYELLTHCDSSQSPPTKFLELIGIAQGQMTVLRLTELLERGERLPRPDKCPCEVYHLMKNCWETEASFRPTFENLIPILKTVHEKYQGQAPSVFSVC
Assay: Inhibition of recombinant GST tagged TYK2 protein after 60 mins using FITC-Ahx-KKSRGDYMTMQIG-NH2 substrate
READOUT_NAME: IC50

In the examples that follow, each entry is paired with its recorded IC50.
| CPD_SMILES | IC50 |
| --- | --- |
| COc1cc(-c2cnc3cc(F)cc(-c4ccc(CC(=O)N5CCOCC5)cc4)c3n2)cc(OC)c1OC | > 10 µM |
| COc1cc(-c2cnc3cccc(-c4ccc(CN5CCOCC5)cc4)c3n2)cc(OC)c1OC | > 10 µM |

Consider now this further compound.
Enquiry: Indicate the recorded IC50 value for this compound: COc1cc(-c2cnc3cc(C)cc(-c4ccc(CC(=O)N5CCS(=O)(=O)CC5)cc4)c3n2)cc(OC)c1OC
Return: > 10 µM
